The values you see were collected from the CATMoS acute toxicity set (Mansouri et al. 2021).

- Protocol Notes: GHS categories as the set defines them, by LD50: 1 up to 5, 2 up to 50, 3 up to 300, 4 up to 2000, 5 above 2000 mg/kg
- Experimental Conditions: rat; in vivo; po
Observable: GHS category
Numbers only.

Below, 4 compounds whose answers are already recorded.
1. CN1C(C(=O)Nc2ccccn2)=C(OC(=O)C(C)(C)C)c2sccc2S1(=O)=O
2
2. CCCCCCCCCCCCCCCCCC(=O)OC(CO)COC(=O)CCCCCCCCCCCCCCC (stereo unspecified)
5
3. COC(=O)CC(N)=S
4
4. C1C[C@@H]2[C@H]3CC[C@H](C3)[C@@H]2C1
5

Quick request: GHS category for each listed item, please.
1. CC[C@H](C)C(=O)O[C@H]1C[C@@H](C)C=C2C=C[C@H](C)[C@H](CC[C@@H]3C[C@@H](O)CC(=O)O3)[C@H]21
2. CCOc1ccc(NC(=O)c2cc3ccccc3cc2O)cc1
3. N[C@@H](CSSC[C@H](N)C(=O)O)C(=O)O

1. 5
2. 5
3. 5

I need GHS category for every entry listed below, if you could help.
1. Nc1ccc(S(=O)(=O)O)cc1
2. O=C(c1ccccc1)C1(O)CCCCC1
3. Cc1cc(C)c(C(=O)P(=O)(c2ccccc2)c2ccccc2)c(C)c1
4. CC1=CCC(C(C)(C)OC(=O)C(C)C)CC1 (stereo unspecified)

1: 5; 2: 5; 3: 5; 4: 5
